Assignment: determine reported log Keq (complex formation constant, disaccharides) for the given compounds.
- Measurement Description: Complex formation constants of p-BPA with carbohydrates and polyols, by integration of aryl protons in the 1H NMR spectrum (D2O, pH buffered at 7.4)
- Assay type: physicochemical
- Test Parameters: L-p-BPA, 1H NMR, D2O, pH buffered at 7.4
Answer with the value's number alone.

Given the entry OC[C@H]1O[C@H](O[C@@H]2COC(O)(CO)[C@@H](O)[C@@H]2O)[C@H](O)[C@@H](O)[C@@H]1O (stereo partly shown) , report its measured log Keq (complex formation constant, disaccharides).
1.7

Given the entry OC[C@H]1O[C@H](OC[C@H]2OC(O)(CO)[C@@H](O)[C@@H]2O)[C@H](O)[C@@H](O)[C@@H]1O (stereo partly shown) , report its measured log Keq (complex formation constant, disaccharides).
2.6

Given the entry OC[C@H]1O[C@@H](O[C@@H]2[C@@H](CO)OC(O)(CO)[C@H]2O)[C@H](O)[C@@H](O)[C@H]1O (mixture of isomers) , report its measured log Keq (complex formation constant, disaccharides).
3.0

Given the entry O=C(CO)[C@@H](O[C@H]1O[C@H](CO)[C@@H](O)[C@H](O)[C@H]1O)[C@H](O)[C@H](O)CO , report its measured log Keq (complex formation constant, disaccharides).
1.6

---

- Measurement Description: Complex formation constants of p-BPA with carbohydrates and polyols, by integration of aryl protons in the 1H NMR spectrum (D2O, pH buffered at 7.4)
- Assay type: physicochemical
- Test Parameters: L-p-BPA, 1H NMR, D2O, pH buffered at 7.4
Rule: log Keq (complex formation constant, monosaccharides) of 2 or more gives Satisfied; anything lower gives Not satisfied.

Check the entry O=C[C@H](O)[C@H](O)[C@H](O)CO : does log Keq (complex formation constant, monosaccharides) equal or exceed 2?
Not satisfied

Check the entry O=C[C@@H](O)[C@@H](O)[C@H](O)[C@H](O)CO : does log Keq (complex formation constant, monosaccharides) equal or exceed 2?
Not satisfied

Check the entry O=C(CO)[C@@H](O)[C@H](O)[C@H](O)CO : does log Keq (complex formation constant, monosaccharides) equal or exceed 2?
Satisfied

Check the entry O=C[C@H](O)[C@@H](O)[C@@H](O)[C@H](O)CO : does log Keq (complex formation constant, monosaccharides) equal or exceed 2?
Not satisfied

Check the entry O=C(CO)[C@H](O)[C@@H](O)[C@H](O)CO : does log Keq (complex formation constant, monosaccharides) equal or exceed 2?
Satisfied

Check the entry O=C[C@H](O)[C@@H](O)[C@H](O)[C@H](O)CO : does log Keq (complex formation constant, monosaccharides) equal or exceed 2?
Not satisfied

Check the entry O=CC[C@@H](O)[C@H](O)[C@H](O)CO : does log Keq (complex formation constant, monosaccharides) equal or exceed 2?
Not satisfied

---

- Measurement Description: Hydration of the freeze-dried solid with warm water and standing at room temperature
- Format: physicochemical
- Test Parameters: warm water, 60° C.
Metric Name: solubility

Given the entry [NH3+][C@@H](Cc1ccc([B-]23OC[C@H]4O[C@@](CO)(O2)[C@@H](O3)[C@@H]4O)cc1)C(=O)O , report its measured solubility.
~100 mg/mL

---

Assignment: determine reported log Keq (complex formation constant, polyols) for the given compounds.
- Measurement Description: Complex formation constants of p-BPA with carbohydrates and polyols, by integration of aryl protons in the 1H NMR spectrum (D2O, pH buffered at 7.4)
- Assay type: physicochemical
- Test Parameters: L-p-BPA, 1H NMR, D2O, pH buffered at 7.4
Answer with the value's number alone.

Given the entry OC[C@@H](O)[C@@H](O)[C@H](O)[C@@H](O)CO , report its measured log Keq (complex formation constant, polyols).
3.2

Given the entry OC[C@@H](O)[C@@H](O)[C@H](O)[C@H](O)CO , report its measured log Keq (complex formation constant, polyols).
2.7

Given the entry OC[C@@H](O)[C@@H](O)[C@@H](O)CO , report its measured log Keq (complex formation constant, polyols).
1.7

Given the entry OC[C@@H](O)[C@H](O)[C@@H](O)CO , report its measured log Keq (complex formation constant, polyols).
2.5
